meta.source: patent US20180185504A1

Catalogue of IC50, cell viability, MCF7/ATCC cells readings, one per entry.
Target: T1, human prolactin receptor (PRLR) (human, UniProt P16471 25-622)
T1 sequence: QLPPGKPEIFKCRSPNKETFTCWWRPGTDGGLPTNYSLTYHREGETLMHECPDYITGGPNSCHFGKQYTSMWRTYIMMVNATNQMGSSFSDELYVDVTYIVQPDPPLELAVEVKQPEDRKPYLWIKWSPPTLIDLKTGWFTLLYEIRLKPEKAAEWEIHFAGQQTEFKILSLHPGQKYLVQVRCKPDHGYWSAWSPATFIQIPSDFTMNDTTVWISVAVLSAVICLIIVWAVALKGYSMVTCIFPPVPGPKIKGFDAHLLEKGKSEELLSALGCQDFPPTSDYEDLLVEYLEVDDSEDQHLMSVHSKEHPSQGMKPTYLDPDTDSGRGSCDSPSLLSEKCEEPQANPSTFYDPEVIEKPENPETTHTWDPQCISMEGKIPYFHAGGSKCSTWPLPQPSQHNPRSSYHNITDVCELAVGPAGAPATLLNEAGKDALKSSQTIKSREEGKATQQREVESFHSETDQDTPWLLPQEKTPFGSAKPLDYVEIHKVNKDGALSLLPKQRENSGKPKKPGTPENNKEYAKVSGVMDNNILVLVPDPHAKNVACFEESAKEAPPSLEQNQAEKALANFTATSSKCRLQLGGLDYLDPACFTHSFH
Assay: cell-based or functional assay
Express the result in nM but write the number alone.

Asked: Recorded IC50, cell viability, MCF7/ATCC cells for H1H6953N-mc-VC-PAB-MMAE (antibody, human IgG1, V domains shown, MMAE conjugated through cleavable mc-vc-PAB linker; attachment residues not stated) VH: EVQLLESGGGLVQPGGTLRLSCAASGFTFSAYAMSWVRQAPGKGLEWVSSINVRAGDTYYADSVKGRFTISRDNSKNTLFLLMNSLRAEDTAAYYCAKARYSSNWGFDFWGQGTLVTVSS VL: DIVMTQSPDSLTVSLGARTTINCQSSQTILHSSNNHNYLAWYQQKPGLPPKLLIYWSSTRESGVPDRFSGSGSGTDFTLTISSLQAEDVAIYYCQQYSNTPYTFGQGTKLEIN , please?
Given back: 150

Asked: Recorded IC50, cell viability, MCF7/ATCC cells for H1H6782P-mc-VC-PAB-MeNHC3-May (antibody, human IgG1, V domains shown, MeNHC3-May conjugated through mc-VC-PAB linker; attachment residues not stated) VH: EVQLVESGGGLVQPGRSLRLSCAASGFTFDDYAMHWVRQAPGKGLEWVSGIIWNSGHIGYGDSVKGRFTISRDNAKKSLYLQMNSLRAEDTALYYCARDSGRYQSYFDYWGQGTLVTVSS VL: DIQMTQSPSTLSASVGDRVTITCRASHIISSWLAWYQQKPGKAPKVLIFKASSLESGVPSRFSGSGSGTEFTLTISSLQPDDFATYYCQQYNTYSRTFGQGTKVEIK , please?
Given back: 250

---
Asked: Recorded IC50, cell viability, MCF7/ATCC cells for H1H6958N2-SPDB-DM4 (antibody, human IgG1, V domains shown, DM4 conjugated through SPDB linker; attachment residues not stated) VH: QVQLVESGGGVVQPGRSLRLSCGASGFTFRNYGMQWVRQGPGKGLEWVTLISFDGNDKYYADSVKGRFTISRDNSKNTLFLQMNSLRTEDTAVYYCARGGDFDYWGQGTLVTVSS VL: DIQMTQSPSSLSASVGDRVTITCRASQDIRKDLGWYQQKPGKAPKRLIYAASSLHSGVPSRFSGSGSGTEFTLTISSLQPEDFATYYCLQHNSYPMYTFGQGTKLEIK , please?
Given back: 25
